Test system: MS2 coat protein
Test: apparent KD of MS2 coat protein, switch ON state; designed switch direction (-1 OFF switch, 1 ON switch): 1; higher = weaker reporter binding
Conditions: FMN input: 0 or 200 uM; Eterna round: R93 (includes R88 designs)

input.sequence | measurement.target | apparent KD of MS2 coat protein [nM]
UAAUAAUAAACCAAGGAUAUGGAGUAUAGAACAUGAGGAUCACCCAUGUGUAGCGUGGAAUAGUACCAGAAGGUGGAGUGAAAUG [JR_SS002_Sub1002] | MS2 coat protein | 39.1
AAUUCCACUAGCAAGGAUAUCUAAAACGAAACAUGAGGAUCACCCAUGUGACGACCACACGUAUCAGAGAAGGUGCAGGGUGAAU [JR_SS002_Sub307] | MS2 coat protein | 20.5
UGGAGACAUGAGGAUCACCCAUGUGAGAAGAGGCGAGGAUAUCGAAAGAAAGAAGAGAAACGAGAAGGCGCGAGCC [salish99-SS1-048] | MS2 coat protein | 36.2
AAAAAAAAGGGUGAGGAUAUAGAAAAAAAAACAUGAGGAUCACCCAUGUGAAAAAAAAAAAAAAGCUAGAAGGCACAAAAAAAAAA [Same State 2] | MS2 coat protein | 79.2
AAAAGACAUGAGGAUCACCCAUGUGAAAACGUACAAGGAUAUGUGUGGAAACCGUACUAUACAGAAGGUGUCUGUC [SS1 - 87] | MS2 coat protein | 63
GAAAAACAUGAGGAUCACCCAUGUGAAAAUAUGGGAGGAUAUACAAAGACGAAAGUCAAAGUAGAAGGCCUAAAAG [Mat - Same State 1 - Eli mod - D3] | MS2 coat protein | 23.5
AAUAUACAUGAGGAUCACCCAUGUUAGGUGGGACUAGGAUAUCAAAAUAAAUAAUGAACAUGAGAAGGAGUAUCAA [JR_SS001_Sub402] | MS2 coat protein | 130
GCGGUGCAGGUACAGGAUAUGUUGCUCGUAACAUGAGGAUCACCCAUGUACCUAUGAGAUUAAAUGCAGAAGGGUGCACACCACG [Oneratle] | MS2 coat protein | 47.2
AAAAAACAUGAGGAUCACCCAUGUCCUCGGACGUGAGGAUAUGUACAGACUUCGGUCUGUACAGAAGGCAUGAAAA [SS1 - 1059] | MS2 coat protein | 432
CCCAUACAUGAGGAUCACCCAUGUUUUAUUAACAGAGGAUAUAUAGGUGAAACAAACAACAUAGAAGGCUGCCCAA [Default title] | MS2 coat protein | 34.2
AGAAGACAUGAGGAUCACCCAUGUAGGAAUAUGGGAGGAUAUACAAAGACGAAAGUCAGAGUAGAAGGCCUAGGAA [salish99-SS1-090] | MS2 coat protein | 18.5
AAAAAACAUGAGGAUCACCCAUGUGGGAAUAUGGAAGGAUAUACAAAGACGAAAGUCAAAGUAGAAGGUCUAAAAG [76%, Meechl 2] | MS2 coat protein | 39.6
AAAGACAUGGUGUAGGAUAUAUUAAUAGUCACAUGAGGAUCACCCAUGUUCAUAUAUAUGAACGAGUAGAAGGACGAUGAAAAAA [SameState2 Malc#3] | MS2 coat protein | 497
AUGAAUAGCCUCGAGGAUAUCCAGUCAUGCACAUGAGGAUCACCCAUGUAAGAGAGAGUAUAAUGGGAGAAGGCGAGUUCUCGGU [JR_SS002_Sub1705] | MS2 coat protein | 50.5
GGAGCCGGCACUGAGGAUAUUCAUAUUAAAACAUGAGGAUCACCCAUGUAGGCCAGAAGGCCUUGGGAGAAGGCAGGUCGGCUCG [Arinin] | MS2 coat protein | 16.5
AAAGAAUGAAGGCAGGAUAUGUGAAAAAAAACAUGAGGAUCACCCAUGUAAUAAAUGGGUACAAAACAGAAGGGCCAAGAAAUAA [SS 2 Tesla 2] | MS2 coat protein | 170
AAUCCACAUGAGGAUCACCCAUGUCAGGAAAUGACAGGAUAUAGCGAAAAAAAAAAAAAGCUAGAAGGGUCUAAUU [SameState1-cac2] | MS2 coat protein | 31.3
